Provenance of the data: patent US7932042B1

# Tested on: patients suffering from schizophrenia
# Method Notes: Diagnostic performance of the OPRP test in the CATIE study for worsening symptoms (Delta PANSS ≧ 0)
# Assay type: in vivo, human
# Details: OPRP Positive
Measure Name: Non-Worsen (number of subjects)
// return just the number, without any unit appended

Record O=C1Cc2cc(CCN3CCN(c4nsc5ccccc45)CC3)c(Cl)cc2N1 , field Non-Worsen (number of subjects): 7

Record OCCN1CCN(CCCN2c3ccccc3Sc3ccc(Cl)cc32)CC1 , field Non-Worsen (number of subjects): 9

Record Cc1nc2n(c(=O)c1CCN1CCC(c3noc4cc(F)ccc34)CC1)CCCC2 , field Non-Worsen (number of subjects): 13

Record OCCOCCN1CCN(C2=Nc3ccccc3Sc3ccccc32)CC1 , field Non-Worsen (number of subjects): 9

Record Cc1cc2c(s1)Nc1ccccc1N=C2N1CCN(C)CC1 , field Non-Worsen (number of subjects): 8

---

Listed next: entries and their corresponding Number of individuals with change in total PANSS (LOCF) ≧−10%.
# Test system: patients suffering from schizophrenia
# Method Notes: CATIE study: change in total PANSS (LOCF) by drug arm, segmented by OPRP genetic signature status
# Assay type: in vivo, human
# Details: OPRP Positive

[
  {
    "Smiles Structure": "OCCOCCN1CCN(C2=Nc3ccccc3Sc3ccccc32)CC1",
    "Recorded Result": 14
  },
  {
    "Smiles Structure": "O=C1Cc2cc(CCN3CCN(c4nsc5ccccc45)CC3)c(Cl)cc2N1",
    "Recorded Result": 9
  },
  {
    "Smiles Structure": "OCCN1CCN(CCCN2c3ccccc3Sc3ccc(Cl)cc32)CC1",
    "Recorded Result": 7
  }
]

Here is another molecule to look at.
Record Cc1cc2c(s1)Nc1ccccc1N=C2N1CCN(C)CC1 , field Number of individuals with change in total PANSS (LOCF) ≧−10%: 25

---

Listed next: entries and their corresponding Number of individuals with delta PANSS (LOCF) ≧0% (worsening symptoms).
# System: patients suffering from schizophrenia
# Method Notes: CATIE study: change in total PANSS (LOCF) by drug arm, segmented by OPRP genetic signature status
# Assay type: in vivo, human
# Details: OPRP Positive
# Text: The CATIE study, a large federally funded clinical trial designed to assess the efficacy of antipsychotics in a real world setting, is a valuable resource for determining the role of genes in baseline psychopathology and drug response (Lieberman et al., 2005; Stroup et al., 2003). […] For the genetic analyses presented herein, the inventors combined and evaluated drug response data for both Phase I and Phase IB of the CATIE study. […]
// return just the number, without any unit appended

Record OCCOCCN1CCN(C2=Nc3ccccc3Sc3ccccc32)CC1 , field Number of individuals with delta PANSS (LOCF) ≧0% (worsening symptoms): 9

Record OCCN1CCN(CCCN2c3ccccc3Sc3ccc(Cl)cc32)CC1 , field Number of individuals with delta PANSS (LOCF) ≧0% (worsening symptoms): 3

Record O=C1Cc2cc(CCN3CCN(c4nsc5ccccc45)CC3)c(Cl)cc2N1 , field Number of individuals with delta PANSS (LOCF) ≧0% (worsening symptoms): 4

Record Cc1cc2c(s1)Nc1ccccc1N=C2N1CCN(C)CC1 , field Number of individuals with delta PANSS (LOCF) ≧0% (worsening symptoms): 18

---

Listed next: entries and their corresponding Number of individuals with change in total PANSS (LOCF) ≦−10% (responders).
# Test system: patients suffering from schizophrenia
# Method Notes: CATIE study: change in total PANSS (LOCF) by drug arm, segmented by OPRP genetic signature status
# Type: in vivo, human
# Details: OPRP Positive
// return just the number, without any unit appended

Example entries begin here.
[
  {
    "Smiles Structure": "Cc1cc2c(s1)Nc1ccccc1N=C2N1CCN(C)CC1",
    "Recorded Result": 1
  },
  {
    "Smiles Structure": "O=C1Cc2cc(CCN3CCN(c4nsc5ccccc45)CC3)c(Cl)cc2N1",
    "Recorded Result": 2
  },
  {
    "Smiles Structure": "OCCOCCN1CCN(C2=Nc3ccccc3Sc3ccccc32)CC1",
    "Recorded Result": 4
  }
]

Here is another compound to look at.
Record OCCN1CCN(CCCN2c3ccccc3Sc3ccc(Cl)cc32)CC1 , field Number of individuals with change in total PANSS (LOCF) ≦−10% (responders): 5

---

# Test system: patients suffering from schizophrenia
# Method Notes: CATIE study: change in total PANSS (LOCF) by drug arm, segmented by OPRP genetic signature status
# Type: in vivo, human
# Details: OPRP Negative
Marks after values point to notes of the source that are not given here.
Listed next: entries and their corresponding Responders (change in PANSS of ≦−10%).

Example entries begin here.
[
  {
    "Smiles Structure": "O=C1Cc2cc(CCN3CCN(c4nsc5ccccc45)CC3)c(Cl)cc2N1",
    "Study Target": "patients suffering from schizophrenia",
    "Responders (change in PANSS of ≦−10%)": "23%^++++"
  },
  {
    "Smiles Structure": "OCCOCCN1CCN(C2=Nc3ccccc3Sc3ccccc32)CC1",
    "Study Target": "patients suffering from schizophrenia",
    "Responders (change in PANSS of ≦−10%)": "33%^+++"
  },
  {
    "Smiles Structure": "Cc1cc2c(s1)Nc1ccccc1N=C2N1CCN(C)CC1",
    "Study Target": "patients suffering from schizophrenia",
    "Responders (change in PANSS of ≦−10%)": "53%^*"
  }
]

Here is another compound to look at.
Record OCCN1CCN(CCCN2c3ccccc3Sc3ccc(Cl)cc32)CC1 , field Responders (change in PANSS of ≦−10%): 35%^+

---

# System: patients suffering from schizophrenia
# Method Notes: Diagnostic performance of the OPRP test in the CATIE study for worsening symptoms (Delta PANSS ≧ 0)
# Format: in vivo, human
# Details: OPRP Positive
Measure Name: Worsen (number of subjects, Delta PANSS ≧ 0)
// return just the number, without any unit appended

Example entries begin here.
[
  {
    "Molecule": "O=C1Cc2cc(CCN3CCN(c4nsc5ccccc45)CC3)c(Cl)cc2N1 [Ziprasidone]",
    "Recorded Result": 4
  },
  {
    "Molecule": "Cc1nc2n(c(=O)c1CCN1CCC(c3noc4cc(F)ccc34)CC1)CCCC2 [Risperidone]",
    "Recorded Result": 7
  },
  {
    "Molecule": "Cc1cc2c(s1)Nc1ccccc1N=C2N1CCN(C)CC1 [Olanzapine]",
    "Recorded Result": 18
  },
  {
    "Molecule": "OCCN1CCN(CCCN2c3ccccc3Sc3ccc(Cl)cc32)CC1 [Perphenazine]",
    "Recorded Result": 3
  }
]

Here is another molecule to look at.
Record OCCOCCN1CCN(C2=Nc3ccccc3Sc3ccccc32)CC1 [Quetiapine] , field Worsen (number of subjects, Delta PANSS ≧ 0): 9
